Reported values of combination Emax for individual entries
- Test system: TGBC24TKB (Biliary Tract Carcinoma)
- Experimental protocol: combination Emax (second highest fraction inhibited in the dose matrix, 72 h); higher = more inhibition; extreme values may be limits of the assay

[
  {
    "Molecule": "CCN(CCO)CCCOc1ccc2c(Nc3cc(CC(=O)Nc4cccc(F)c4)[nH]n3)ncnc2c1 [AZD2811] + O=C(c1cc(Cc2n[nH]c(=O)c3ccccc23)ccc1F)N1CCN(C(=O)C2CC2)CC1 [Olaparib] (first compound max 1 µM, 7x7, partner max 10 µM)",
    "combination Emax": 0.564
  },
  {
    "Molecule": "Cn1cnc2c(F)c(Nc3ccc(Br)cc3Cl)c(C(=O)NOCCO)cc21 [Selumetinib] + CCN(CCO)CCCOc1ccc2c(Nc3cc(CC(=O)Nc4cccc(F)c4)[nH]n3)ncnc2c1 [AZD2811] (first compound max 10 µM, 7x7, partner max 1 µM)",
    "combination Emax": 0.551
  },
  {
    "Molecule": "C[C@@H](c1ccc2nccn2c1)n1nnc2ncc(-c3cnn(C)c3)nc21 [Savolitinib] + CN(CC[C@H](CSC1=CC=CC=C1)NC2=C(C=C(C=C2)S(=O)(=O)NC(=O)C3=CC=C(C=C3)N4CCC(CC4)[C@H](C5=CC=CC=C5C6=CC=C(C=C6)Cl)O)S(=O)(=O)C(F)(F)F)CCO [AZD4320] (first compound max 1 µM, 7x7, partner max 1 µM)",
    "combination Emax": 0.561
  },
  {
    "Molecule": "CCc1c2c(nc3ccc(O)cc13)-c1cc3c(c(=O)n1C2)COC(=O)[C@]3(O)CC [SN-38] + CN(C)CCCOc1ccc(-c2ccc3ncc4c(c3c2)n(C2CCOCC2)c(=O)n4C)cn1 [AZD0156] (first compound max 0.3 µM, 7x7, partner max 1 µM)",
    "combination Emax": 0.533
  },
  {
    "Molecule": "COc1nnc2ccc(N3CCC(c4ccc(OCCN5CCN(C)C(=O)[C@H]5C)cc4)CC3)nn12 [AZD5153] + C=CCn1c(=O)c2cnc(Nc3ccc(N4CCN(C)CC4)cc3)nc2n1-c1cccc(C(C)(C)O)n1 [AZD1775] (first compound max 1 µM, partner max 1 µM)",
    "combination Emax": 0.826
  },
  {
    "Molecule": "C[C@@H](c1ccc2nccn2c1)n1nnc2ncc(-c3cnn(C)c3)nc21 [Savolitinib] + CC1(C)CCC(CN2CCN(c3ccc(C(=O)NS(=O)(=O)c4ccc(NCC5CCOCC5)c([N+](=O)[O-])c4)c(Oc4cnc5[nH]ccc5c4)c3)CC2)=C(c2ccc(Cl)cc2)C1 [Venetoclax] (first compound max 1 µM, 7x7, partner max 1 µM)",
    "combination Emax": 0.215
  },
  {
    "Molecule": "CS(=O)(=O)CCNCc1ccc(-c2ccc3ncnc(Nc4ccc(OCc5cccc(F)c5)c(Cl)c4)c3c2)o1 [Lapatinib] + NC1(c2ccc(-c3nc4ccn5c(=O)[nH]nc5c4cc3-c3ccccc3)cc2)CCC1 [MK-2206] (first compound max 10 µM, 7x7, partner max 10 µM)",
    "combination Emax": 0.957
  },
  {
    "Molecule": "Cc1c2c(nn1C)CSCc1cc(n(C)n1)CSc1cc(c3ccccc3c1)OCCCc1c(C(=O)O)n(C)c3c-2c(Cl)ccc13 [AZD5991] + C[C@@H](Nc1cc(F)cc(F)c1)c1cc(C(=O)N(C)C)cc2c(=O)cc(N3CCOCC3)oc12 [AZD8186] (first compound max 1 µM, 7x7, partner max 3 µM)",
    "combination Emax": 0.249
  },
  {
    "Molecule": "CN(C)CCCOc1ccc(-c2ccc3ncc4c(c3c2)n(C2CCOCC2)c(=O)n4C)cn1 [AZD0156] + CCN(CCO)CCCOc1ccc2c(Nc3cc(CC(=O)Nc4cccc(F)c4)[nH]n3)ncnc2c1 [AZD2811] (first compound max 1 µM, 7x7, partner max 1 µM)",
    "combination Emax": 0.505
  },
  {
    "Molecule": "Cc1c2c(nn1C)CSCc1cc(n(C)n1)CSc1cc(c3ccccc3c1)OCCCc1c(C(=O)O)n(C)c3c-2c(Cl)ccc13 [AZD5991] + C1CN(CCC1(C(=O)N[C@@H](CCO)C2=CC=C(C=C2)Cl)N)C3=NC=NC4=C3C=CN4 [Capivasertib] (first compound max 1 µM, 7x7, partner max 3 µM)",
    "combination Emax": 0.175
  }
]

* * *

- System: NCI-H2595 (Mesothelioma)
- Experimental protocol: combination Emax (second highest fraction inhibited in the dose matrix, 72 h); higher = more inhibition; extreme values may be limits of the assay
Reported values of combination Emax for individual entries

[
  {
    "Compound": "COc1cccc(OCCCN)c1-c1cc(Nc2cnc(C#N)cn2)n[nH]1 [Prexasertib] + CN(C)CCCOc1ccc(-c2ccc3ncc4c(c3c2)n(C2CCOCC2)c(=O)n4C)cn1 [AZD0156] (first compound max 1 µM, 7x7, partner max 1 µM)",
    "combination Emax": 0.1
  },
  {
    "Compound": "CN(C)CCCOc1ccc(-c2ccc3ncc4c(c3c2)n(C2CCOCC2)c(=O)n4C)cn1 [AZD0156] + C=CCn1c(=O)c2cnc(Nc3ccc(N4CCN(C)CC4)cc3)nc2n1-c1cccc(C(C)(C)O)n1 [AZD1775] (first compound max 1 µM, partner max 1 µM)",
    "combination Emax": 0.12
  },
  {
    "Compound": "NC1(C(=O)N[C@@H](CCO)c2ccc(Cl)cc2)CCN(c2ncnc3[nH]ccc23)CC1 [Capivasertib] + CCN(CCO)CCCOc1ccc2c(Nc3cc(CC(=O)Nc4cccc(F)c4)[nH]n3)ncnc2c1 [AZD2811] (first compound max 10 µM, 7x7, partner max 1 µM)",
    "combination Emax": 0.261
  },
  {
    "Compound": "CN(CCO)CC[C@H](CSc1ccccc1)Nc1ccc(S(=O)(=O)NC(=O)c2ccc(N3CCC([C@@H](O)c4ccccc4-c4ccc(Cl)cc4)CC3)cc2)cc1S(=O)(=O)C(F)(F)F [AZD4320] + Nc1ccn([C@@H]2O[C@H](CO)[C@@H](O)C2(F)F)c(=O)n1 [Gemcitabine] (first compound max 1 µM, 7x7, partner max 0.3 µM)",
    "combination Emax": 0.382
  },
  {
    "Compound": "CC(=O)c1c(C)c2cnc(Nc3ccc(N4CCNCC4)cn3)nc2n(C2CCCC2)c1=O [Palbociclib] + Cc1c2c(nn1C)CSCc1cc(n(C)n1)CSc1cc(c3ccccc3c1)OCCCc1c(C(=O)O)n(C)c3c-2c(Cl)ccc13 [AZD5991] (first compound max 10 µM, 7x7, partner max 1 µM)",
    "combination Emax": 0.225
  },
  {
    "Compound": "CN(C)CCCOc1ccc(-c2ccc3ncc4c(c3c2)n(C2CCOCC2)c(=O)n4C)cn1 [AZD0156] + O=C(c1cc(Cc2n[nH]c(=O)c3ccccc23)ccc1F)N1CCN(C(=O)C2CC2)CC1 [Olaparib] (first compound max 3 µM, partner max 3 µM)",
    "combination Emax": 0.139
  }
]

* * *

- Test system: C3A (Hepatocellular Carcinoma);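 note: after 72 h of two-drug dosing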
- Experimental protocol: Bliss excess, mean over the matrix (fraction); higher = more synergy
Label N if Bliss excess falls below -0.03; label Y in every other case.

[
  {
    "Molecule": "COc1cccc(OCCCN)c1-c1cc(Nc2cnc(C#N)cn2)n[nH]1 [Prexasertib] + CCc1c2c(nc3ccc(O)cc13)-c1cc3c(c(=O)n1C2)COC(=O)[C@]3(O)CC [SN-38] (first compound max 1 µM, 7x7, partner max 0.3 µM)",
    "Target desc": "C3A (Hepatocellular Carcinoma)",
    "Group": "N"
  },
  {
    "Molecule": "CCc1c2c(nc3ccc(O)cc13)-c1cc3c(c(=O)n1C2)COC(=O)[C@]3(O)CC [SN-38] + CN(C)CCCOc1ccc(-c2ccc3ncc4c(c3c2)n(C2CCOCC2)c(=O)n4C)cn1 [AZD0156] (first compound max 0.3 µM, 7x7, partner max 1 µM)",
    "Target desc": "C3A (Hepatocellular Carcinoma)",
    "Group": "N"
  },
  {
    "Molecule": "Cc1c2c(nn1C)CSCc1cc(n(C)n1)CSc1cc(c3ccccc3c1)OCCCc1c(C(=O)O)n(C)c3c-2c(Cl)ccc13 [AZD5991] + Cc1cc2ncnn2cc1Nc1ncc2c(n1)n(C1CCOCC1)c(=O)n2C [AZD7648] (first compound max 1 µM, 7x7, partner max 10 µM)",
    "Target desc": "C3A (Hepatocellular Carcinoma)",
    "Group": "N"
  },
  {
    "Molecule": "CN(CCO)CC[C@H](CSc1ccccc1)Nc1ccc(S(=O)(=O)NC(=O)c2ccc(N3CCC([C@@H](O)c4ccccc4-c4ccc(Cl)cc4)CC3)cc2)cc1S(=O)(=O)C(F)(F)F [AZD4320] + CCN(CCO)CCCOc1ccc2c(Nc3cc(CC(=O)Nc4cccc(F)c4)[nH]n3)ncnc2c1 [AZD2811] (first compound max 1 µM, 7x7, partner max 1 µM)",
    "Target desc": "C3A (Hepatocellular Carcinoma)",
    "Group": "N"
  },
  {
    "Molecule": "Cc1cc2ncnn2cc1Nc1ncc2c(n1)n(C1CCOCC1)c(=O)n2C [AZD7648] + CCN(CCO)CCCOc1ccc2c(Nc3cc(CC(=O)Nc4cccc(F)c4)[nH]n3)ncnc2c1 [AZD2811] (first compound max 10 µM, 7x7, partner max 1 µM)",
    "Target desc": "C3A (Hepatocellular Carcinoma)",
    "Group": "Y"
  },
  {
    "Molecule": "Cc1cc2ncnn2cc1Nc1ncc2c(n1)n(C1CCOCC1)c(=O)n2C [AZD7648] + CN(C)CCCOc1ccc(-c2ccc3ncc4c(c3c2)n(C2CCOCC2)c(=O)n4C)cn1 [AZD0156] (first compound max 10 µM, 7x7, partner max 1 µM)",
    "Target desc": "C3A (Hepatocellular Carcinoma)",
    "Group": "N"
  },
  {
    "Molecule": "NC1(C(=O)N[C@@H](CCO)c2ccc(Cl)cc2)CCN(c2ncnc3[nH]ccc23)CC1 [Capivasertib] + Cn1cnc2c(F)c(Nc3ccc(Br)cc3Cl)c(C(=O)NOCCO)cc21 [Selumetinib] (first compound max 10 µM, 7x7, partner max 10 µM)",
    "Target desc": "C3A (Hepatocellular Carcinoma)",
    "Group": "Y"
  }
]
